Ref: patent US20220089730A1

- TESTED SYSTEM: PSMA (Prostate-Specific Membrane Antigen), glutamate carboxypeptidase 2 (UniProt Q04609 1-750)
- PROTOCOL TEXT: FACS
EC50 by entry:
The reply should contain only the number, in nM.

# annotated cases, reported EC50 shown
IAB2M γ1 EH3 (other) DIVMTQSPSSLSASVGDRVTITCKASQDVGTAVDWYQQKPGKAPKLLIYWASTRHTGVPDRFTGSGSGTDFTLTISSLQPEDFADYFCQQYNSYPLTFGGGTKLEIKGSTSGGGSGGGSGGGGSSEVQLVQSGAEVKKPGASVKISCKTSGYTFTEYTIHWVKQASGKGLEWIGNINPNNGGTTYNQKFEDRATLTVDKSTSTAYMELSSLRSEDTAVYYCAAGWNFDYWGQGTTVTVSSEPKSSDKTHTCPPCPPCGGGSSGGGSGGQPREPQVYTLPPSRDELTKNQVSLTCLVKGFYPSDIAVEWESNGQPENNYKTTPPVLDSDGSFFLYSKLTVDKSRWQQGNVFSCSVMHEALHNHYTQKSLSLSPGK :: 0.162
IAB2M γ3/γ1 EH7 (other) DIVMTQSPSSLSASVGDRVTITCKASQDVGTAVDWYQQKPGKAPKLLIYWASTRHTGVPDRFTGSGSGTDFTLTISSLQPEDFADYFCQQYNSYPLTFGGGTKLEIKGSTSGGGSGGGSGGGGSSEVQLVQSGAEVKKPGASVKISCKTSGYTFTEYTIHWVKQASGKGLEWIGNINPNNGGTTYNQKFEDRATLTVDKSTSTAYMELSSLRSEDTAVYYCAAGWNFDYWGQGTTVTVSSELKTPLGDTTHTCPPCPPCGGGSSGGGSGGQPREPQVYTLPPSRDELTKNQVSLTCLVKGFYPSDIAVEWESNGQPENNYKTTPPVLDSDGSFFLYSKLTVDKSRWQQGNVFSCSVMHEALHNHYTQKSLSLSPGK :: 0.186
IAB2M γ3/γ1 EH8 (other) DIVMTQSPSSLSASVGDRVTITCKASQDVGTAVDWYQQKPGKAPKLLIYWASTRHTGVPDRFTGSGSGTDFTLTISSLQPEDFADYFCQQYNSYPLTFGGGTKLEIKGSTSGGGSGGGSGGGGSSEVQLVQSGAEVKKPGASVKISCKTSGYTFTEYTIHWVKQASGKGLEWIGNINPNNGGTTYNQKFEDRATLTVDKSTSTAYMELSSLRSEDTAVYYCAAGWNFDYWGQGTTVTVSSELKTPLGDTTHTCPPCPPCPPCGGGSSGGGSGGQPREPQVYTLPPSRDELTKNQVSLTCLVKGFYPSDIAVEWESNGQPENNYKTTPPVLDSDGSFFLYSKLTVDKSRWQQGNVFSCSVMHEALHNHYTQKSLSLSPGK :: 0.227
IAB2M γ1 EH5 (other) DIVMTQSPSSLSASVGDRVTITCKASQDVGTAVDWYQQKPGKAPKLLIYWASTRHTGVPDRFTGSGSGTDFTLTISSLQPEDFADYFCQQYNSYPLTFGGGTKLEIKGSTSGGGSGGGSGGGGSSEVQLVQSGAEVKKPGASVKISCKTSGYTFTEYTIHWVKQASGKGLEWIGNINPNNGGTTYNQKFEDRATLTVDKSTSTAYMELSSLRSEDTAVYYCAAGWNFDYWGQGTTVTVSSEPKSSDKTHTCPPCPPCPPCGGGSSGGGSGGQPREPQVYTLPPSRDELTKNQVSLTCLVKGFYPSDIAVEWESNGQPENNYKTTPPVLDSDGSFFLYSKLTVDKSRWQQGNVFSCSVMHEALHNHYTQKSLSLSPGK :: 0.183

// query Query (binder): IAB2M γ3/γ1 EH6 (other) DIVMTQSPSSLSASVGDRVTITCKASQDVGTAVDWYQQKPGKAPKLLIYWASTRHTGVPDRFTGSGSGTDFTLTISSLQPEDFADYFCQQYNSYPLTFGGGTKLEIKGSTSGGGSGGGSGGGGSSEVQLVQSGAEVKKPGASVKISCKTSGYTFTEYTIHWVKQASGKGLEWIGNINPNNGGTTYNQKFEDRATLTVDKSTSTAYMELSSLRSEDTAVYYCAAGWNFDYWGQGTTVTVSSELKTPLGDTTHTCVECPPCGGGSSGGGSGGQPREPQVYTLPPSRDELTKNQVSLTCLVKGFYPSDIAVEWESNGQPENNYKTTPPVLDSDGSFFLYSKLTVDKSRWQQGNVFSCSVMHEALHNHYTQKSLSLSPGK ; field requested: EC50
// result 0.188
